assay: growth inhibition of non-replicating M. tuberculosis (AID 488890); conditions: Mycobacterium tuberculosis non-replicating, at 25 µM, stronger effect = higher value;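 also: plate controls were DMSO cells for no effect and high antibiotic wells for full effect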
In all, about 320,000 compounds went through this assay and about 1,300 (0.41%) were called active. About 3% were inconclusive and are not listed. Only a sample is shown. Entries with a potency or affinity are not part of this list.
Observable: inhibition (%)
Numbers only, in %.

Worked set:
# Molecule, Value measured
measured = [
    ("O=C(Nc1nccs1)c1ccc(N2C(=O)C3CCCCC3C2=O)cc1 (configuration not stated)", 6.17),
    ("COc1ccc(OCC(=O)N/N=C2\\CCCCc3ccccc32)cc1", 22.5),
]

For each of the molecules below, state inhibition.
1. Cn1nc(C(=O)NCCN2CCOCC2)c2ccccc2c1=O
2. CCCN(Cc1nnc(-c2ccccc2Cl)o1)C(=O)c1ccc(C)c(S(=O)(=O)N2CCOCC2)c1
3. CC(C)[C@H](NC(=O)c1ccco1)C(=O)OCC(=O)NC12CC3CC(CC(C3)C1)C2
4. Cn1cnnc1SCCNS(=O)(=O)c1ccccc1

[-5.46, -1.62, 16.5, 2.23]

For each of the molecules below, state inhibition.
1. O=C(Nc1nc2ccccc2n1Cc1ccccc1)c1ccc(COc2ccccc2[N+](=O)[O-])o1
2. O=C(Nc1ccc2c(c1)Cc1ccccc1-2)c1ccc(Br)o1
3. CCn1c(C)nc2c(=O)oc3ccccc3c21
4. O=C(COc1ccccc1C(=O)Nc1ccccc1)c1ccc(F)cc1
5. CCn1c(CNC(=O)c2ccccc2)nc2ccccc21

[-4.43, 53.9, -3.87, 2.88, 2.98]

For each of the molecules below, state inhibition.
1. COC(=O)c1cnn(-c2nc(OC)cc(OC)n2)c1C
2. O=C(COc1ccccc1Cl)c1ccc2c(c1)CCCC2
3. CCOC(=O)c1ccccc1NC1OC(=O)c2ccccc21 (configuration not stated)
4. O=C(CNc1cccc2ccccc12)c1ccc([N+](=O)[O-])cc1
5. N#Cc1c(NCCCO)nc(NCc2ccccc2)c2c1CCN(Cc1ccccc1)C2
6. O=c1oc2ccccc2c2c1nnn2CCO
7. O=C(NCc1ccco1)c1ccc(NS(=O)(=O)c2cccc(F)c2)cc1

[-11.5, 38.7, -8.12, 73.1, 26.6, 97.3, 29.2]

For each of the molecules below, state inhibition.
1. CN(C)CCCn1c(NC(=O)C2CCCCC2)nc2ccccc21
2. CCOC(=O)c1ccc(NC(=O)C(C)N2C(=O)c3ccccc3C2=O)cc1 (configuration not stated)
3. CCN(CC)c1ccc(NC(=O)c2ccc(Br)o2)cc1
4. COC(=O)c1cc(Br)c(=O)n(Cc2ccc(C(=O)O)cc2)c1
5. Cc1ccc(C(=O)CNc2cccc([N+](=O)[O-])c2)cc1
6. OCC1(Cc2ccccc2)CCN(Cc2cnc(-c3cccc4ccccc34)nc2)CC1
7. CCn1c(NC2CCCCC2)nc2ccccc21
8. CCOC(=O)c1ccc(NC(=O)C2C3C=CC(O3)C2C(=O)O)cc1 (configuration not stated)

1: 24.1; 2: -8.22; 3: 52.8; 4: -0.84; 5: 11.3; 6: 4.25; 7: 8.52; 8: 20.5

For each of the molecules below, state inhibition.
1. CCn1c(-c2nonc2NC(=O)c2ccccc2)nc2ccccc21
2. COc1ccc(OCC(=O)N/N=C2\CCCc3ccccc32)cc1
3. CCOc1cc2c(cc1OCC)-n1cccc1C(c1ccccc1F)NC2 (configuration not stated)
4. Cc1cc(NC(=O)CN2CCN(c3ccccc3O)CC2)no1
5. Cc1ccc(NCC(=O)c2ccc([N+](=O)[O-])cc2)cc1
6. CCC(C)n1cnc2c(=O)oc3ccccc3c21 (configuration not stated)
7. O=C(NC(=S)Nc1cccc(F)c1)c1cccc([N+](=O)[O-])c1
8. Cc1ccc(C(=O)Nc2ccc3c(c2)CCC3)o1

1: 3.27; 2: 34.2; 3: 19.4; 4: 3.86; 5: 68; 6: -10.2; 7: 74; 8: 79.8

For each of the molecules below, state inhibition.
1. CC(C)Cn1cnc2c(=O)oc3ccccc3c21
2. CCN1CCCC1CNC(=O)C(=O)NC(C)c1ccccc1 (configuration not stated)
3. CCOC(=O)c1ccc(NC2c3ccccc3C(=O)N2c2ccccn2)cc1 (configuration not stated)
4. CCn1c(NC(=O)c2ccc(COc3ccc(C)cc3[N+](=O)[O-])o2)nc2ccccc21
5. COc1cc(OC)nc(-n2ncc(OC)c(Br)c2=O)n1
6. CCOc1ncccc1C(=O)OCC(=O)N1CCN(S(=O)(=O)c2ccccc2)CC1
7. CCN(CC)C(=O)CN(c1ccc(Cl)cc1)S(=O)(=O)c1ccccc1

1: -17.9; 2: 5.13; 3: -6.64; 4: 14; 5: -12; 6: -4.22; 7: 3.57

For each of the molecules below, state inhibition.
1. CCN(C(=O)COC(=O)c1cc([N+](=O)[O-])ccc1N1CCOCC1)C1CCS(=O)(=O)C1 (configuration not stated)
2. Cc1cc(C(c2ccc(O)cc2)c2cc(C)c(O)cc2C)c(C)cc1O
3. Cc1ccc(C(=O)Nc2scc(-c3ccccc3)c2C(=O)O)cc1
4. COc1ccc2occ(C(=O)c3ccccc3)c2c1

1: -18.3; 2: 19.6; 3: 67.7; 4: 3.51

For each of the molecules below, state inhibition.
1. Cc1ccc(-n2nnc3c(=O)oc4ccccc4c32)cc1
2. NNC(=O)/C(=C/c1cccs1)NC(=O)c1ccccc1Cl

1. 6.67
2. 1.61
